The compounds listed here are annotated with their IC50.
Target: Recombinant human TRKC (Homo sapiens, UniProt Q16288)
Sequence (Q16288 32-839): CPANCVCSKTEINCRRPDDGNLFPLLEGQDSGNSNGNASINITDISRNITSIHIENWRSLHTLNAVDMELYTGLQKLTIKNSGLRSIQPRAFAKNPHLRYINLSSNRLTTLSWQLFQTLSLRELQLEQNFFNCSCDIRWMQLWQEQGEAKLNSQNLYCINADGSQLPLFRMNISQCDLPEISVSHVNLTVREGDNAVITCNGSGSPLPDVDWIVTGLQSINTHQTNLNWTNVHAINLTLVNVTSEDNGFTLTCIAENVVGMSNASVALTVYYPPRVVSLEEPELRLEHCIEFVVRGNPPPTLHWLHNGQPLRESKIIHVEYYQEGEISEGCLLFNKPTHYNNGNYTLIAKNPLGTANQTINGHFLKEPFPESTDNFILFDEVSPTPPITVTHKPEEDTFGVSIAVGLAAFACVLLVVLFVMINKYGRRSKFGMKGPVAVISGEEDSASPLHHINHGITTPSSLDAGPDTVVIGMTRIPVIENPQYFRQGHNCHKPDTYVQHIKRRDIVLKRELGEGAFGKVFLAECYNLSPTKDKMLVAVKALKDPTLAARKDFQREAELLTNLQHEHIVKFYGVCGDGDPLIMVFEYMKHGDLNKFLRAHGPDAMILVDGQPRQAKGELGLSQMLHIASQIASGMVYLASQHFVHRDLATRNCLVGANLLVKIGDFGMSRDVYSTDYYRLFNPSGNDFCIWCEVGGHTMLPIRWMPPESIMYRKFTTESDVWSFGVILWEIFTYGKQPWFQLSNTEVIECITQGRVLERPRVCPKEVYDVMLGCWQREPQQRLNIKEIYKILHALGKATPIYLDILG
Test: In vitro activity test on TRKC kinase (HTRF KinEASE TK)
Conditions: 25.64 μM ATP, 40 min

Reference set, count: 3
{"columns": ["smiles.data", "IC50"],
 "data": [
  ["O=c1n(-c2ccnc3ccc(N4C[C@@H](F)C[C@@H]4c4cc(F)ccc4F)nc23)ccn1C1CCNCC1", "< 1 nM"],
  ["Fc1ccc(F)c([C@H]2C[C@H](F)CN2c2ccc3ncc(F)c(-c4cn(C5CCNCC5)nn4)c3n2)c1", "< 10 nM"],
  ["Fc1ccc(F)c([C@H]2C[C@H](F)CN2c2ccc3ncc(Cl)c(-c4ccc(C5CCNCC5)nc4)c3n2)c1", "< 10 nM"]
]}

Qu. So what IC50 did Fc1ccc(F)c([C@H]2CCCN2c2ccc3ncc(F)c(-c4cnn(C5CCNCC5)c4)c3n2)c1 get with Recombinant human TRKC (Homo sapiens, UniProt Q16288)?
Ans. < 1 nM

----------
Target: Recombinant human TRKC (Homo sapiens, UniProt Q16288)
Experiment: In vitro activity test on TRKC kinase (HTRF KinEASE TK)
Settings: 25.64 μM ATP, 40 min
Below, each of the compounds is paired with its reported IC50 value.

{"columns": ["smiles.data", "IC50"],
 "data": [
  ["NC(=O)c1cnc2ccc(N3C[C@@H](F)C[C@@H]3c3cc(F)ccc3F)nc2c1-c1cnn(C2CCNCC2)c1", "< 10 nM"],
  ["Fc1ccc(F)c([C@H]2C[C@H](F)CN2c2ccc3ncc(Cl)c(-c4noc(C5CCNCC5)n4)c3n2)c1", "< 1 nM"],
  ["OCCNc1ccnc2ccc(N3CCC[C@@H]3c3cc(F)ccc3F)nc12", "< 500 nM"]
]}

Qu. # returns recorded IC50 (system: Recombinant human TRKC (Homo sapiens, UniProt Q16288)) for Fc1ccc(F)c([C@H]2C[C@H](F)CN2c2ccc3ncc(F)c(-c4cnn(C5CCNCC5)c4)c3n2)c1
Ans. < 1 nM

----------
Target: recombinant human TRKA (G667C) (Homo sapiens, UniProt P04629, G667C)
Sequence (P04629 33-796 G667C): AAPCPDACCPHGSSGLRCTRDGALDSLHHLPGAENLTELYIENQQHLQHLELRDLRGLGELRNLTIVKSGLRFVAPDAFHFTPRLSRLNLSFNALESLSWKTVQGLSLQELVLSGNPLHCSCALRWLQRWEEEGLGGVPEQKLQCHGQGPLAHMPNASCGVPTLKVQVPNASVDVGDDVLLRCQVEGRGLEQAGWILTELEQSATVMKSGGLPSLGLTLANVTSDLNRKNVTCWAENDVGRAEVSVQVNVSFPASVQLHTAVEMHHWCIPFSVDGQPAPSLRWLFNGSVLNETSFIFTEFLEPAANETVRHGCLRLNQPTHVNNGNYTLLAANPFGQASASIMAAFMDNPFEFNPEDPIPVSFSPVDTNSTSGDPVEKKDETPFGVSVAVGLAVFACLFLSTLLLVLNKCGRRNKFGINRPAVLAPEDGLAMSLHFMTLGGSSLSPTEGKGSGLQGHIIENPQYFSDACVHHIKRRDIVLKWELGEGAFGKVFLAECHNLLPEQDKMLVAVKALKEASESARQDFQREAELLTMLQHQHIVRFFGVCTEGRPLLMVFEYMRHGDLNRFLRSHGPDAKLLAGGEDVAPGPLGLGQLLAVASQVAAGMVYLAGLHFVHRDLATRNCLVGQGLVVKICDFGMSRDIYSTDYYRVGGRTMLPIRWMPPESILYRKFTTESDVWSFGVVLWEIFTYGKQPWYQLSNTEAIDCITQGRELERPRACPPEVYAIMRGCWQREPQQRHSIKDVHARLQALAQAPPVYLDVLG
Experiment: In vitro activity test on mutant TRKA (G667C) (HTRF KinEASE TK)
Details: 5.5 μM ATP, 30 min
pIC50: −log10 of the molar value.
Below, each entry is listed with its recorded pIC50.

{"columns": ["compound", "property", "endpoint.result"],
 "data": [
  ["Fc1ccc(F)c([C@H]2CCCN2c2ccc3nccc(-c4cnn(C5CCNCC5)c4)c3n2)c1", "pIC50", "> 9.00"],
  ["O=C(Nc1ccnc2ccc(N3C[C@@H](F)C[C@@H]3c3cc(F)ccc3F)nc12)N1CC[C@H](O)C1", "pIC50", "> 9.00"],
  ["CN1CCC(n2cc(-c3c(Cl)cnc4ccc(N5C[C@@H](F)C[C@@H]5c5cc(F)ccc5F)nc34)cn2)CC1", "pIC50", "> 9.00"]
]}

Qu. pIC50 for OC1CCC(Nc2ccnc3ccc(N4C[C@@H](F)C[C@@H]4c4cc(F)ccc4F)nc23)C1 (stereo partly drawn) ?
Ans. > 8.00

Qu. Dear colleague, I am looking for the recorded pIC50 of the following compound: O[C@@H]1CCN(c2ccc(-c3c(Cl)cnc4ccc(N5C[C@@H](F)C[C@@H]5c5cc(F)ccc5F)nc34)cn2)C1
Ans. > 8.00

Qu. Item Fc1ccc(F)c([C@H]2C[C@H](F)CN2c2ccc3ncc(Cl)c(-c4cnn(C5CCNCC5)c4)c3n2)c1 has what recorded pIC50?
Ans. > 9.00

Qu. Tell me the measured pIC50 of NC(=O)c1ccnc2ccc(N3CCC[C@@H]3c3cc(F)ccc3F)nc12 , please.
Ans. > 7.00

Qu. For O[C@H]1CCN(C(=S)Nc2ccnc3ccc(N4C[C@@H](F)C[C@@H]4c4cc(F)ccc4F)nc23)C1 , what is its reported pIC50?
Ans. > 8.00

Qu. Data request, read-out pIC50, for CN1CC(n2cc(-c3c(Cl)cnc4ccc(N5C[C@@H](F)C[C@@H]5c5cc(F)ccc5F)nc34)cn2)C1
Ans. > 9.00

Qu. What does the record list as pIC50 for Fc1ccc(F)c([C@H]2C[C@H](F)CN2c2ccc3ncc(Cl)c(-c4ccn(C5CCNCC5)c4)c3n2)c1 ?
Ans. > 8.00

Qu. Query: pIC50; subject: Fc1ccc(F)c([C@H]2C[C@H](F)CN2c2ccc3ncc(Cl)c(-c4cnn(C5CCNCC5)n4)c3n2)c1
Ans. > 9.00

Qu. Which pIC50 is listed for Fc1ccc(F)c([C@H]2C[C@H](F)CN2c2ccc3ncc(Cl)c(-c4cnc(C5CCNCC5)s4)c3n2)c1 ?
Ans. > 8.00

Qu. Given the entry CN(C)S(=O)(=O)n1cc(-c2c(Cl)cnc3ccc(N4C[C@@H](F)C[C@@H]4c4cc(F)ccc4F)nc23)cn1 , report its measured pIC50.
Ans. > 7.00

Qu. So what's the measured pIC50 for this one? Fc1ccc(F)c([C@H]2C[C@H](F)CN2c2ccc3ncc(Cl)c(-c4cnn([C@@H]5CCNC5)c4)c3n2)c1
Ans. > 8.00

Qu. What value of pIC50 has been recorded for this entry: Fc1ccc(F)c([C@H]2CCCN2c2ccc3ncc(F)c(-c4cnn(C5CNC5)c4)c3n2)c1
Ans. > 8.00

Qu. Consider the compound Fc1ccc(F)c([C@H]2C[C@H](F)CN2c2ccc3ncnc(-c4cnn(CC5CNC5)c4)c3n2)c1 and give its measured pIC50.
Ans. > 8.00

Qu. May I ask what pIC50 has been recorded for O=C(Nc1ccnc2ccc(N3CCC[C@@H]3c3cc(F)ccc3F)nc12)N1CC[C@H](O)C1 ?
Ans. > 7.30

----------
Quick reference for pIC50 among some compounds
Target: Recombinant human TRKB (Homo sapiens)
Sequence (Q16620 32-822): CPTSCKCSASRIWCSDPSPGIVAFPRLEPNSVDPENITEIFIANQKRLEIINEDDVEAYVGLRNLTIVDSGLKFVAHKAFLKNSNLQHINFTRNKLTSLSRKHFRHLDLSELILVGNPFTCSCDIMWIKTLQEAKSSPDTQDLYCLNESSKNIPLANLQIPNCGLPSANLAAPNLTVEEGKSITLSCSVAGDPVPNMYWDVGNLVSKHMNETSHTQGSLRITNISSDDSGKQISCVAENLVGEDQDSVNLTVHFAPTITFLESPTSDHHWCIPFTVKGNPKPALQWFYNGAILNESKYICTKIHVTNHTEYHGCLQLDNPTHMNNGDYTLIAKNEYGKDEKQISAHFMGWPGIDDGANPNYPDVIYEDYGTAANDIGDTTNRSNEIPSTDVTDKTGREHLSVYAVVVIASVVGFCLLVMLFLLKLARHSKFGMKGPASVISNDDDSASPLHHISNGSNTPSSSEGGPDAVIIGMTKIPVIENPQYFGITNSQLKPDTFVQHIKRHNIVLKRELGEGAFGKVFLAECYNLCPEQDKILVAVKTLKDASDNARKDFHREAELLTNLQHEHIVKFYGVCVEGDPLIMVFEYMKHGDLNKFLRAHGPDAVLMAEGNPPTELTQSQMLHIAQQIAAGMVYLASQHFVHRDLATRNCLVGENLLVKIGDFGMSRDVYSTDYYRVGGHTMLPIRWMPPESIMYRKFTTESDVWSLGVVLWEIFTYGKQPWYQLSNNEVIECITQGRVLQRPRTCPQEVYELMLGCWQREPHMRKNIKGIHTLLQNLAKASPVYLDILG
Assay: In vitro activity test on TRKB kinase (HTRF KinEASE TK)
Details: 4.77 μM ATP, 50 min
pIC50: −log10 of the molar value.

{"columns": ["compound", "endpoint.result"],
 "data": [
  ["COc1ncc(F)cc1[C@H]1CCCN1c1ccc2ncc(Cl)c(-c3cnn(C4CCNCC4)c3)c2n1 [Example 30]", "> 8.00"],
  ["O[C@H]1CN=C(Nc2ccnc3ccc(N4C[C@@H](F)C[C@@H]4c4cc(F)ccc4F)nc23)OC1 [Example 99]", "> 9.00"],
  ["O=C1CC(n2cc(-c3ccnc4ccc(N5C[C@@H](F)C[C@@H]5c5cc(F)ccc5F)nc34)cn2)CCN1 (stereo partly shown) [Example 19]", "> 6.30"]
]}

Qu. Value lookup for pIC50; key = O[C@H]1CCN(c2ccnc3ccc(N4CCC[C@@H]4c4cc(F)ccc4F)nc23)C1 [Example 5]
Ans. > 6.30

Qu. pIC50 lookup needed for Fc1ccc(F)c([C@H]2C[C@H](F)CN2c2ccc3ncc(Cl)c(-c4cn(C5CCNCC5)nn4)c3n2)c1 [Example 67] , thanks.
Ans. > 9.00

Qu. Fill blank: measured pIC50 of the compound O=c1n(-c2ncnc3ccc(N4C[C@@H](F)C[C@@H]4c4cc(F)ccc4F)nc23)ccn1C1CCNCC1 [Example 96] is ____.
Ans. > 8.00

Qu. Name the recorded pIC50 for Fc1ccc(F)c([C@H]2C[C@H](F)CN2c2ccc3nccc(-c4cnn(C5CCNCC5)c4)c3n2)c1 [Example 11] .
Ans. > 9.00

Qu. Entry OC[C@H](O)CN1CCC(n2cc(-c3c(Cl)cnc4ccc(N5C[C@@H](F)C[C@@H]5c5cc(F)ccc5F)nc34)cn2)CC1 [Example 40] : reported pIC50 = ?
Ans. > 9.00

Qu. I'd like to know its pIC50. The compound in question is Fc1ccc(Cl)c([C@H]2CCCN2c2ccc3ncc(F)c(-c4cnn(C5CCNCC5)c4)c3n2)c1 [Example 89]
Ans. > 8.00

Qu. Look up pIC50: Fc1ccc(F)c([C@H]2C[C@H](F)CN2c2ccc3ncc(Cl)c(-c4cnn([C@H]5CCCNC5)c4)c3n2)c1 [Example 55]
Ans. > 6.30

Qu. // returns reported pIC50 for input CC1(O)CCN(c2ncc(-c3ncnc4ccc(N5C[C@@H](F)C[C@@H]5c5cc(F)ccc5F)nc34)cn2)C1 (stereo partly shown) [Example 85]
Ans. > 9.00

Qu. What pIC50 value was documented for this compound, Fc1ccc(F)c([C@H]2C[C@H](F)CN2c2ccc3ncc(Cl)c(-c4cnn(C5CNC5)c4)c3n2)c1 [Example 22] ?
Ans. > 9.00

Qu. Please give the measured pIC50 for this compound: Fc1ccc(F)c([C@H]2CCCN2c2ccc3ncc(F)c(-c4cnn(C5CNC5)c4)c3n2)c1 [Example 28]
Ans. > 8.00

Qu. May I ask what pIC50 has been recorded for Fc1ccc(F)c([C@H]2C[C@H](F)CN2c2ccc3ncnc(-c4cn(C5CCNCC5)nn4)c3n2)c1 [Example 86] ?
Ans. > 8.00

Qu. What measured pIC50 goes with Fc1ccc(F)c([C@H]2C[C@H](F)CN2c2ccc3ncnc(-c4cnn(CC5CNC5)c4)c3n2)c1 [Example 59] ?
Ans. > 7.30

Qu. Fill in: pIC50 of Fc1ccc(F)c([C@H]2C[C@H](F)CN2c2ccc3ncc(F)c(-c4cnn(C5CCNCC5)c4)c3n2)c1 [Example 20] is ___
Ans. > 9.00
